# Test System: Glucose transporter (Leishmania mexicana)
# Assay Procedure: ST_JUDE_LEISH: Cytotoxicity at 2uM final concentration against transgenic Leishmania Mexicana promastigotes LmGT2 that are glucose transport deficient and complemented with the L. Mexicana glucose transporter 2. Activity is measured by DNA content using SYBR green in vitro
# Type: functional
Measured Metric: inhibition (%)
Respond with the bare value in %.

# count of solved cases: 3
CC(Sc1nnc(-c2ccccc2Br)[nH]1)C(=O)Nc1ccc(F)cc1 (stereo not given)    6.58
NCc1cccc(-c2ccc(CNC3CCN(Cc4ccccc4)CC3)cc2)c1    -1.34
COc1ccccc1Cn1ccnc1SCC(=O)Nc1cccc(C(F)(F)F)c1    -0.75

Item `S=C(NCCN1CCOCC1)Nc1ccccc1` was tested on Glucose transporter (Leishmania mexicana); the reported inhibition is 0.17

Item `O=C(N[C@@H](Cc1ccccc1)C(=O)NCc1cccc(C(F)(F)F)c1)c1ccc(O)c(-c2ccc(Cl)c(Cl)c2)c1` was tested on Glucose transporter (Leishmania mexicana); the reported inhibition is -2.02

Item `Clc1cc(Cl)c2cc(CNCCCNc3ccc4ccccc4n3)[nH]c2c1` was tested on Glucose transporter (Leishmania mexicana); the reported inhibition is 1

Item COc1cccc(C(=O)N2CCOC(CCN3CCC(c4ccccc4)CC3)(c3ccc(Cl)c(Cl)c3)C2)c1 (stereo not given) was tested on Glucose transporter (Leishmania mexicana); the reported inhibition is -0.26

Item `NS(=O)(=O)c1ccc(CNc2ccc3ncc(-c4ccc(OC(F)(F)F)cc4)n3n2)cc1` was tested on Glucose transporter (Leishmania mexicana); the reported inhibition is 4.53

Item `Cc1cccc(OCCCCON2C(=N)N=C(N)NC2(C)C)c1C` was tested on Glucose transporter (Leishmania mexicana); the reported inhibition is 1.69

Item O=C(Nc1ccc(I)cc1)N1CCc2sccc2C1CN1CCCCC1 (stereo not given) was tested on Glucose transporter (Leishmania mexicana); the reported inhibition is 10.5

---

The reader will find reported inhibition values listed item by item below.
# Test System: Hexose transporter 1 (Plasmodium falciparum) (UniProt O97467)
# Assay Procedure: ST_JUDE_LEISH: Cytotoxicity at 2uM final concentration against transgenic Leishmania Mexicana promastigotes LmPfHT that are glucose transport deficient and complemented with the Plasmodium falciparum hexose transporter. Activity is measured by DNA content using SYBR green in vitro
# Format: functional
Respond with the bare value in %.

CN1CCC(NCc2ccc(-c3ccc(S(=O)(=O)NC4CCC4)s3)cc2)CC1    1.25
Cc1nc(NCCCn2ccnc2)cc(-c2cncc(-c3ccc(OC(F)(F)F)cc3)c2)n1    5.92
Fc1ccc2nc(Nc3nc(-c4ccccn4)cs3)sc2c1    10.8
Oc1ccc(CCNc2nc(NCc3ccccc3-c3ccccc3)nc(N3CCCNCC3)n2)cc1    2.05
CCOc1ccc(-c2nonc2NC(=O)c2ccc(F)cc2)cc1OCC    2
COc1ccc2c(c1)nc(CNC(=N)N)n2Cc1ccc(Cl)cc1    1.08

# inhibition (molecule: `O=C(O[C@H]1CN[C@H](C#Cc2cc3c(Nc4ccc(OCc5cccc(F)c5)c(Cl)c4)ncnc3s2)C1)N1CCCC1` ) is 6.01

# inhibition (molecule: `COc1c(Br)cc(Br)cc1-c1ccc(CN2C3CCCC2CCC3)[nH]1` ) is 7.84

# inhibition (molecule: `CCCCOc1cc2ncc(C(=O)OCC)c(O)c2cc1OCCCC` ) is 0.46

# inhibition (molecule: `COc1ccc(CON2C(=N)N=C(N)NC2(C)C)cc1OC` ) is -1.38

---

# Test System: Solute carrier family 2, facilitated glucose transporter member 1 (Homo sapiens) (UniProt P11166)
# Sequence (P11166 whole entry): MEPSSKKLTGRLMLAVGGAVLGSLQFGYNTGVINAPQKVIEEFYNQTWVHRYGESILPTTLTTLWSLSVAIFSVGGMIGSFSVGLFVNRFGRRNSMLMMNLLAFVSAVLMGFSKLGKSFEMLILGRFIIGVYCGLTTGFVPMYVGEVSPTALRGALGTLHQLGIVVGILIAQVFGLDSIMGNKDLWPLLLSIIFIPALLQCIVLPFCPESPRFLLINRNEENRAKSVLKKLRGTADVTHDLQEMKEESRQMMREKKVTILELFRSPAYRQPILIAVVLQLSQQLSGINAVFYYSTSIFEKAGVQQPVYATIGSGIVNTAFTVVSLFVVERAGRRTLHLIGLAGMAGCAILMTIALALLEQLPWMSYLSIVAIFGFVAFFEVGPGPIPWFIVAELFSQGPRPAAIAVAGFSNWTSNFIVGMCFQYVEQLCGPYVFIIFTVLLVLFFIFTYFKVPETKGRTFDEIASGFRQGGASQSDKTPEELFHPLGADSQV
# Assay Procedure: ST_JUDE_LEISH: Cytotoxicity at 2uM final concentration against transgenic Leishmania Mexicana promastigotes LmGLUT1 that are glucose transport deficient and complemented with the human glucose transporter GLUT1. Activity is measured by DNA content using SYBR green in vitro
# Type: functional
The reader will find reported inhibition values listed item by item below.

# count of solved cases: 4
CCOC(=O)c1cc(C(=O)OC)c2ccccn12    2.17%
COc1ccc(NC(=O)[C@H](CC(C)C)Nc2cc(C)nc(Nc3ccccc3)n2)cc1    19.2%
COc1ccc(-c2cncc(-c3ccc(OC)c(OC)c3)n2)cc1OC    2.76%
O=C(c1cc(C(=O)Nc2ccccc2)c(=O)n(-c2ccccc2)c1)c1cc(Cl)ccc1O    3.8%

Now for a further molecule.
# inhibition (molecule: `Cc1cc(N[C@@H](Cc2ccccc2)C(=O)NCCCOC(C)C)nc(NCC2CCCCC2)n1` ) is 11.7%

---

The reader will find reported inhibition values listed item by item below.
# Test System: Hexose transporter 1 (Plasmodium falciparum)
# Assay Procedure: ST_JUDE_LEISH: Cytotoxicity at 2uM final concentration against transgenic Leishmania Mexicana promastigotes LmPfHT that are glucose transport deficient and complemented with the Plasmodium falciparum hexose transporter. Activity is measured by DNA content using SYBR green in vitro
# Format: functional
Respond with the bare value in %.

COC(=O)C(NC(=O)NC1CCN(c2ccnc(Nc3ccc(F)cc3)n2)C1)c1ccccc1 (centres undefined)    -1.97
COc1cc(NC(=O)NC(CCN2CCC3(CCc4ccccc43)CC2)c2ccc(Cl)c(Cl)c2)cc(OC)c1OC (centres undefined)    0.09

# inhibition (compound: `COc1ccccc1-n1c(SCC(=O)Nc2ccccc2F)nc2cccnc21` ) is 1.38

# inhibition (compound: `N#Cc1ccc(NC(=O)c2ccc(Cc3ccc4c(c3)CCN(C3CCC3)CC4)cn2)cc1` ) is 10.6

# inhibition (compound: COc1ccc(C(=O)C2CC2CN(C)CCC(O)c2ccc(Cl)c(Cl)c2)cc1 (centres undefined) ) is 1.11

# inhibition (compound: `O=C(Nc1cccc(-c2cccc(-c3nc4ccccc4[nH]3)c2)c1)Nc1ccc(F)c(F)c1F` ) is 4.36

# inhibition (compound: `CN(C)c1ccc(C(c2ccc(N(C)C)cc2)c2cc([N+](=O)[O-])ccc2Cl)cc1` ) is 0.82

---

# Test System: Solute carrier family 2, facilitated glucose transporter member 1 (Homo sapiens) (UniProt P11166)
# Assay Procedure: ST_JUDE_LEISH: Cytotoxicity at 2uM final concentration against transgenic Leishmania Mexicana promastigotes LmGLUT1 that are glucose transport deficient and complemented with the human glucose transporter GLUT1. Activity is measured by DNA content using SYBR green in vitro
# Assay type: functional
Measured Metric: inhibition (%)
Respond with the bare value in %.

# count of solved cases: 10
CC(C)Sc1nc(-c2ccccc2)nc2c1COC(C)(C)C2    -2.07
O=C(NCCN1CCCCC1)c1cccc(Nc2nccc(Nc3ccc(Oc4ccccc4)cc3)n2)c1    -0.01
CCOc1ccc2c(=NN=Cc3c4ccccc4cc4ccccc34)cc(C)[nH]c2c1    2.42
CN(C)Cc1cc2c(O)c(Cc3ccccc3)ccc2o1    2.65
CCN(CC)CCN(Cc1ccc(-c2ccc(C(F)(F)F)cc2)cc1)C(=O)Cn1c(CCc2cccc(F)c2F)nc(=O)c2cc(F)ccc21    4.48
Cn1nc(-c2ccc(CNC3CCc4ccccc43)cc2)c2cnc(NCCN3CCCC3)nc21 (configuration not stated)    2.93
CN1CCN(c2cccc(NC(=O)c3ccc(-c4ccc(C#N)cc4)cc3)c2)CC1    8.25
CCOc1c(OC)ccc2c1CCN(CCN1CCC(CNC(=O)c3ccc(-c4ccc(C(F)(F)F)cc4)cc3)CC1)C2    -1.88
O=C(NCCCCN1CCC(c2ccc3c(c2OCCCO)CCCC3)CC1)c1ccc(-c2ccc(C(F)(F)F)cc2)c(CO)c1    -0.96
COc1ccc2nc(C)cc(Nc3ccc(Oc4ccc5ccccc5c4)c(Cl)c3)c2c1    7.14

# inhibition (compound: `COc1ccc2[nH]c(C)cc(=NN=Cc3ccccc3Cl)c2c1` ) is 5.14

# inhibition (compound: `NS(=O)(=O)c1ccc(CNC(=O)c2cnc3c(O)cccc3c2Nc2cccc(NC(=O)c3ccc(Cl)c(Cl)c3)c2)cc1` ) is 5.22

---

# Test System: Glucose transporter (Leishmania mexicana) (UniProt O61059)
# Assay Procedure: ST_JUDE_LEISH: Cytotoxicity at 2uM final concentration against transgenic Leishmania Mexicana promastigotes LmGT2 that are glucose transport deficient and complemented with the L. Mexicana glucose transporter 2. Activity is measured by DNA content using SYBR green in vitro
# Type: functional
Measured Metric: inhibition (%)
Respond with the bare value in %.

# count of solved cases: 4
Cc1ccc(CNC(=N)NC(=O)c2nc(Cl)c(NCc3ccc(Cl)cc3)nc2N)c(C)c1    1.11
CCN(CC)C(=O)C1CCCN(c2cc(C)nc(Nc3ccc(Cl)cc3)n2)C1 (stereo not given)    0.51
Oc1ccc(CCNc2nc(NCCCOc3ccccc3-c3cccnc3)nc(N3CCNCC3)n2)cc1    5.99
CCCN(Cc1ccc(OCC)cc1)Cc1cc(=O)c2cc(Cl)ccc2[nH]1    7.1

# inhibition (molecule: `CCCn1c(=N)c(C(=O)NCCc2ccccc2)cc2c(=O)n3cccc(C)c3nc21` ) is 2.32

# inhibition (molecule: `COc1cc(Cl)c(C)cc1-n1cc(C(=O)c2cc(Br)ccc2O)cc(C#N)c1=O` ) is 0.03

# inhibition (molecule: `CCc1cccc(-n2c(=O)c3cccnc3n2CC(=O)NCc2ccccc2Cl)c1` ) is 4.33

# inhibition (molecule: `Cc1cc(Nc2ccc(C)c(C)c2)n2nc(C)nc2n1` ) is 5.46

# inhibition (molecule: `Fc1ccc2[nH]c(-c3cccc(-c4cccc(CNCCc5ccncc5)c4)c3)nc2c1` ) is 12.9

# inhibition (molecule: `COc1ccc2ccccc2c1C=NN=c1cc(C)[nH]c2c(C)cccc12` ) is 3.6

# inhibition (molecule: O=C(NC1CCCCCC1)C1CCCN(C(=O)c2ccc(O)c(-c3ccc(Cl)c(Cl)c3)c2)C1 (stereo not given) ) is 2.57

# inhibition (molecule: `CCOc1cc(C(=O)Nc2cccnc2)ccc1-c1nc2cc(Cl)c(Cl)cc2[nH]1` ) is -0.85

# inhibition (molecule: `CC1(C)CCC(C)(C)c2c1ccc(C1CCN(CCCCNC(=O)c3ccc(-c4ccc(C#N)cc4)cc3)CC1)c2OCC(N)=O` ) is 4.33

# inhibition (molecule: `COc1cc(Cc2cnc(N)nc2N)cc(OCCCCc2ccc([N+](=O)[O-])cc2)c1OC` ) is 1.51

# inhibition (molecule: `O=c1cc(NCCCNCc2cccc(OC(F)(F)C(F)F)c2)[nH]c2ccccc12` ) is 5.78

# inhibition (molecule: CN(C(=O)/C=C/c1cc(C(F)(F)F)ccc1F)C1CCN(CCCCCNC(=O)/C=C/c2ccc(Cl)c(Cl)c2)C1 (stereo not given) ) is 1.37

Hey, just so you know, these numbers are from ChEMBL document CHEMBL3433997.
